Taken from PubChem BioAssay (NCATS).

testName: Primary qHTS for Huh7 cytotoxicity: counterscreen for inhibitors of MERS-S pseudotyped particle cell entry (AID 1479147)
measurementContext: cell viability read-out; series mostly up to 57.1 µM
Results filed as inconclusive are left out. Activity calls are given as the source filed them. The call rests on the fitted dose curve.
Choose one outcome from this list and give only that: active, inactive

These recorded examples may help you get a feel for the data.
CCCCC(=O)O[C@]1(C(=O)CO)[C@@H](C)C[C@H]2[C@@H]3CCC4=CC(=O)C=C[C@]4(C)[C@@]3(F)[C@@H](O)C[C@@]21C    inactive
Cc1ccc(/C(=C\CN2CCCC2)c2ccccn2)cc1    inactive
Nc1ccn([C@H]2CC[C@@H](CO)O2)c(=O)n1    inactive
CN(Cc1cc(Br)cc(Br)c1N)C1CCCCC1    inactive
CCCCOc1ccc(OCCCN2CCOCC2)cc1    inactive

Each molecule tested received a call. Report the one for COc1ccc(-c2cc(C(F)F)nn2-c2ccc(S(N)(=O)=O)cc2)cc1F .
inactive

Each molecule tested received a call. Report the one for CN1C[C@H](C(=O)N[C@]2(C)O[C@@]3(O)[C@@H]4CCCN4C(=O)[C@H](Cc4ccccc4)N3C2=O)C[C@@H]2c3cccc4[nH]cc(c34)C[C@H]21 .
inactive

Each molecule tested received a call. Report the one for COc1cc(NS(=O)(=O)c2ccc(N)cc2)nc(OC)n1 .
inactive

Each molecule tested received a call. Report the one for C[C@H]1O[C@@H](O[C@H]2CC[C@@]3(C)[C@H](CC[C@@H]4[C@@H]3C[C@@H](O)[C@]3(C)[C@@H](C5=CC(=O)OC5)CC[C@]43O)C2)C[C@H](O)[C@@H]1O[C@H]1C[C@H](O)[C@H](O[C@H]2C[C@H](O)[C@H](O[C@@H]3O[C@H](CO)[C@@H](O)[C@H](O)[C@H]3O)[C@@H](C)O2)[C@@H](C)O1 .
active

Each molecule tested received a call. Report the one for COC(=O)Nc1nc2ccc(S(=O)c3ccccc3)cc2[nH]1 (stereo unspecified) .
inactive

Each molecule tested received a call. Report the one for O=[N+]([O-])c1nccn1CO[C@@H](CO)[C@H](O)CO .
inactive

* * *

testName: Cell Viability - LYMP2-014 (AID 983);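 further: cells exposed to compound for 24 h at 37 °C; nearly all actives have a fitted effect of over 50% in size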
measurementContext: LYMP2-014 lymphoblastoid cells, viability qHTS; series mostly up to 92.2 µM
Results filed as inconclusive are left out. Activity calls are given as the source filed them. Calls come from the whole dose curve; as a rule, active = well fitted cell-killing curve with a large enough effect; inconclusive = small, poorly fitted or top-dose-only effect; inactive = flat fitted curve, though single readings scatter.
Choose one outcome from this list and give only that: active, inactive

These recorded examples may help you get a feel for the data.
CCCCCCCCCCCC[N+](C)(C)CCOc1ccccc1    active
CC[n+]1c(-c2ccccc2)c2cc(N)ccc2c2ccc(N)cc21    active
O=C(CCl)c1ccc(Cl)cc1Cl    active

Now turn to the next compound.
Each compound tested received a call. Report the one for Oc1c(Br)cc(Br)cc1Br .
inactive

* * *

measurementContext: Ebola virus entry assay, green fluorescence channel
Results with a measured potency or affinity are listed apart.
Use efficacy to assign classes; range list: lower level (below 10%), middle level (10% to below 30%), upper level (30% or more)

These recorded examples may help you get a feel for the data.
NC1(c2ccc(-c3nc4ccn5c(=O)[nH]nc5c4cc3-c3ccccc3)cc2)CCC1    upper level
CC(O)COc1ccccc1 (stereo not drawn)    middle level
CN1CC(=O)N2[C@H](c3ccc4c(c3)OCO4)c3[nH]c4ccccc4c3C[C@@H]2C1=O    middle level
C[C@]12CC[C@@H]3c4ccc(O)cc4CC[C@H]3[C@@H]1CCC2=O    upper level
CCN(CC)CCNC(=O)c1cc(Br)c(N)cc1OC    middle level

Which class holds CC1(C)S[C@@H]2[C@H](N=CN3CCCCCC3)C(=O)N2[C@H]1C(=O)O ?
lower level

Which class holds OC[C@]1(O)OC[C@@H](O)[C@H](O)[C@@H]1O ?
lower level

Which class holds C=CCOc1cc(Cl)ccc1C(=O)NCCN(CC)CC ?
lower level

Which class holds NS(=O)(=O)c1cc2c(cc1Cl)NC(CSCc1ccccc1)=NS2(=O)=O ?
middle level
